Read-out: Tissue plasminogen activator (tPA), PLAT (gene 5327)
Assay Summary: BSK_BE3C_tPA: BioMAP Diversity Plus: BE3C Assay for Tissue plasminogen activator (tPA) Biomarker Activity (AID 2283041);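 on outcome: tPA level quantified by ELISA one day after compound addition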
Condition Details: primary human bronchial epithelial cells; actives raise or lower the signal
Active and inactive are the calls of the source. How the source made its calls: active means hit-call score of the fitted dose curve at least 0.9, where 1 is the maximum; inactive means score below 0.9.
Respond only with the outcome that fits, drawn from active, inactive

Take a look at these entries with their results.
[
  {
    "Compound": "c1ccc(C2CO2)cc1 (stereo not drawn)",
    "Label": "inactive"
  },
  {
    "Compound": "Brc1ccc(Oc2ccccc2)cc1",
    "Label": "inactive"
  },
  {
    "Compound": "O=C(N[C@H](c1ccccc1)[C@@H]1CN2CCC1CC2)c1c(Cl)ccc(C(F)(F)F)c1Cl",
    "Label": "active"
  },
  {
    "Compound": "CN(C)c1ccc(C(=O)c2ccc(N(C)C)cc2)cc1",
    "Label": "inactive"
  },
  {
    "Compound": "O=C1CCCO1",
    "Label": "inactive"
  },
  {
    "Compound": "CC(C)(O)c1cnn2c(-c3ccc(F)c(-c4c(F)cccc4C#N)c3)cnc2n1",
    "Label": "active"
  }
]

# ---- query compound ----
Ask | What classification did `CCCSC(=O)N(CCC)CCC` end up with in this test?
Reply | inactive

----------
Read-out: adenosine kinase (ADK) gene, ADK (gene 132)
Assay Summary: LTEA_HepaRG_ADK: Life Technologies and Expression Analysis (LTEA) Assay for adenosine kinase (ADK) gene using HepaRG (AID 2283471)
Condition Details: mRNA level, 48 h; actives raise or lower the signal
Protocol: LTEA_HepaRG is a cell based, multiplexed-readout assay that uses HepaRG, a human liver cell line, with measurements taken at 48 hours after chemical dosing on a 96-well plate.LTEA_HepaRG_ADK is one of 102 assay component(s) measured in the LTEA HepaRG cell culture assay. It is a marker of Steatosis.Data from the assay component LTEA_HepaRG_ADK was analyzed into 1 endpoint. […]
Activity calls are given as the source filed them. The calls were made as follows: active = hit-call score of the fitted dose curve at least 0.9, where 1 is the maximum; inactive = score below 0.9.
Valid outcomes are listed here; reply with one: yes (1) = active, no (0) = inactive

Observe how each entry below is paired with its result.
[
  {
    "Compound": "Nc1ccc(Cl)cc1N",
    "Label": "no (0)"
  },
  {
    "Compound": "N#CC(Br)Br",
    "Label": "no (0)"
  },
  {
    "Compound": "CC(O)CCO (stereo not drawn)",
    "Label": "no (0)"
  },
  {
    "Compound": "c1ccc(C2CO2)cc1 (stereo not drawn)",
    "Label": "no (0)"
  },
  {
    "Compound": "CC(C)(C)C(O)(CCc1ccc(Cl)cc1)Cn1cncn1 (stereo not drawn)",
    "Label": "no (0)"
  }
]

Turning to the following compound.
Ask | Per the assay record, what outcome was assigned to `Nc1ccc(Oc2ccc(N)cc2)cc1` ?
Reply | no (0)

----------
Assay Summary: ATG_DR4_LXR_CIS: Attagene CIS-FACTORIAL HepG2 Assay for human Liver X Receptor (LXR), DR4 submotif (AID 2282929)
Condition Details: HepG2 Attagene DR4 cis-reporter, mRNA transcription; actives raise or lower the signal
The source made the active and inactive calls. The calls were made as follows: active = hit-call score of the fitted dose curve at least 0.9, where 1 is the maximum; inactive = score below 0.9.
Can you answer with just one of these options? active, inactive

Use the examples below as a reference point.
[
  {
    "Molecule": "CO[C@@H]1[C@H](OC(=O)NC(=O)CCl)CC[C@]2(CO2)[C@H]1[C@@]1(C)O[C@@H]1CC=C(C)C",
    "Label": "active"
  },
  {
    "Molecule": "OCCCBr",
    "Label": "inactive"
  },
  {
    "Molecule": "O=C(Oc1ccc(Br)cc1)N1CCN2CCC1CC2",
    "Label": "inactive"
  },
  {
    "Molecule": "CC(C)(O)c1cnn2c(-c3ccc(F)c(-c4c(F)cccc4C#N)c3)cnc2n1",
    "Label": "active"
  },
  {
    "Molecule": "Cc1ccc(N=C=O)cc1N=C=O",
    "Label": "inactive"
  }
]

Ask | What did this assay record as the result for `Nc1cc(Cl)cc(C(=O)O)c1Cl` ?
Reply | inactive

Ask | Called result for CC(C)(C)C(O)(CCc1ccc(Cl)cc1)Cn1cncn1 (stereo not drawn)
Reply | active

Value source: PubChem BioAssay (EPA / NIEHS)
